In this section we review reported Ki values for a set of molecules.
molecular target: UniProt:P47746; experiment: Displacement of [3H]CP-55940 from CB1 receptor in CD1 mouse brain; format: tissue-based

Worked examples follow.
O=C(NN1CCCCC1)c1nn(-c2ccc(Cl)cc2Cl)c2c1CCCc1ccccc1-2; 168 nM (antagonist)
O=C(NN1CCCCC1)c1nn(-c2ccc(Cl)cc2Cl)c2c1CCc1cc(Cl)ccc1-2; 14.8 nM (antagonist)
O=C(Nc1ccccc1)c1nn(-c2ccc(Cl)cc2Cl)c2c1CCCc1cc(Cl)ccc1-2; 4.35 nM (antagonist)
O=C(Nc1ccc(Cl)cc1)c1nn(-c2ccc(Cl)cc2Cl)c2c1CCCc1cc(Cl)ccc1-2; 2.5 nM (antagonist)
Cc1ccc2c(c1)CCCc1c(C(=O)NN3CCCC3)nn(-c3ccc(Cl)cc3Cl)c1-2; 0.11 nM (antagonist)
O=C(NN1CCCCC1)c1nn(-c2ccc(Cl)cc2Cl)c2c1CCCc1ccc(Cl)cc1-2; 31.2 nM (antagonist)
O=C(NN1CCCCC1)c1nn(-c2ccc(Cl)cc2Cl)c2c1CCCc1c(Cl)cccc1-2; 9.84 nM (antagonist)
O=C(NN1CCCCC1)c1nn(-c2ccc(Cl)cc2Cl)c2c1CCCc1cc(Br)ccc1-2; 0.008 nM (antagonist)

Now consider the entry below.
Can you look up the measured Ki of O=C(NN1CCCCC1)c1nn(-c2ccc(Cl)cc2Cl)c2c1Cc1cc(Cl)ccc1-2 for me? 2050 nM (antagonist)

* * *

In this section we review reported Ki values for a set of compounds.
biological target: Cannabinoid receptor 1 (Mus musculus, UniProt P47746); test: Displacement of [3H]CP-55940 from CB1 receptor in CD1 mouse brain; assay type: tissue-based

Worked examples follow.
O=C(NC1CCCCC1)c1nn(-c2ccc(Cl)cc2Cl)c2c1CCCc1cc(Cl)ccc1-2; 300 pM (antagonist)
Cc1ccc2c(c1)CCCc1c(C(=O)NN3CCCCC3)nn(-c3ccc(Cl)cc3Cl)c1-2; 5.2 pM (antagonist)
O=C(Nc1ccc(Cl)c(Cl)c1)c1nn(-c2ccc(Cl)cc2Cl)c2c1CCCc1cc(Cl)ccc1-2; 25800 pM (antagonist)
Cc1ccc(NC(=O)c2nn(-c3ccc(Cl)cc3Cl)c3c2CCCc2cc(Cl)ccc2-3)cc1; 5740 pM (antagonist)
O=C(NN1CCCCC1)c1nn(-c2ccc(Cl)cc2Cl)c2c1CCCc1cc(Cl)ccc1-2; 0.35 pM (antagonist)
COc1ccc(NC(=O)c2nn(-c3ccc(Cl)cc3Cl)c3c2CCCc2cc(Cl)ccc2-3)cc1; 13 pM (antagonist)
O=C(NN1CCCC1)c1nn(-c2ccc(Cl)cc2Cl)c2c1CCCc1cc(Cl)ccc1-2; 4 pM (antagonist)

Now consider the entry below.
Can you look up the measured Ki of O=C(NN1CCCCCC1)c1nn(-c2ccc(Cl)cc2Cl)c2c1CCCc1cc(Cl)ccc1-2 for me? 1 pM (antagonist)

* * *

biological target: Cannabinoid receptor 2 (Mus musculus, UniProt P47936); assay: Displacement of [3H]CP-55940 from CB2 receptor in CD1 mouse spleen; format: tissue-based
Reported Endpoint: Ki

O=C(Nc1ccc(Cl)c(Cl)c1)c1nn(-c2ccc(Cl)cc2Cl)c2c1CCCc1cc(Cl)ccc1-2; > 0.5 µM
O=C(Nc1ccccc1)c1nn(-c2ccc(Cl)cc2Cl)c2c1CCCc1cc(Cl)ccc1-2; 0.00145 µM (antagonist)
O=C(NN1CCCCC1)c1nn(-c2ccc(Cl)cc2Cl)c2c1CCCc1c(Cl)cccc1-2; 0.0316 µM (antagonist)

# query: Ki | item Cc1ccc2c(c1)CCCc1c(C(=O)NN3CCCCC3)nn(-c3ccc(Cl)cc3Cl)c1-2 | system: Cannabinoid receptor 2 (Mus musculus, UniProt P47936) 0.00046 µM (antagonist)

# query: Ki | item COc1ccc(NC(=O)c2nn(-c3ccc(Cl)cc3Cl)c3c2CCCc2cc(Cl)ccc2-3)cc1 | system: Cannabinoid receptor 2 (Mus musculus, UniProt P47936) 0.0433 µM (antagonist)

# query: Ki | item O=C(NN1CCCCC1)c1nn(-c2ccc(Cl)cc2Cl)c2c1Cc1cc(Cl)ccc1-2 | system: Cannabinoid receptor 2 (Mus musculus, UniProt P47936) 0.00034 µM (antagonist)

# query: Ki | item O=C(NN1CCCCC1)c1nn(-c2ccc(Cl)cc2Cl)c2c1CCCc1cc(Cl)ccc1-2 | system: Cannabinoid receptor 2 (Mus musculus, UniProt P47936) 0.021 µM (antagonist)

# query: Ki | item O=C(NN1CCCC1)c1nn(-c2ccc(Cl)cc2Cl)c2c1CCCc1cc(Cl)ccc1-2 | system: Cannabinoid receptor 2 (Mus musculus, UniProt P47936) 0.045 µM (antagonist)

# query: Ki | item O=C(Nc1ccc(Cl)cc1)c1nn(-c2ccc(Cl)cc2Cl)c2c1CCCc1cc(Cl)ccc1-2 | system: Cannabinoid receptor 2 (Mus musculus, UniProt P47936) 0.079 µM (antagonist)

# query: Ki | item O=C(NN1CCCCC1)c1nn(-c2ccc(Cl)cc2Cl)c2c1CCCc1ccccc1-2 | system: Cannabinoid receptor 2 (Mus musculus, UniProt P47936) 0.0181 µM (antagonist)

# query: Ki | item Cc1ccc(NC(=O)c2nn(-c3ccc(Cl)cc3Cl)c3c2CCCc2cc(Cl)ccc2-3)cc1 | system: Cannabinoid receptor 2 (Mus musculus, UniProt P47936) 0.065 µM (antagonist)

# query: Ki | item Cc1ccc2c(c1)CCCc1c(C(=O)NN3CCCC3)nn(-c3ccc(Cl)cc3Cl)c1-2 | system: Cannabinoid receptor 2 (Mus musculus, UniProt P47936) 0.386 µM (antagonist)

* * *

target: Cannabinoid receptor (Mus musculus) (UniProt P47746+P47936); assay: Selectivity for CB1 receptor over CB2 receptor in CD1 mouse; format: protein assay
Sequence (P47746 whole entry, looked up): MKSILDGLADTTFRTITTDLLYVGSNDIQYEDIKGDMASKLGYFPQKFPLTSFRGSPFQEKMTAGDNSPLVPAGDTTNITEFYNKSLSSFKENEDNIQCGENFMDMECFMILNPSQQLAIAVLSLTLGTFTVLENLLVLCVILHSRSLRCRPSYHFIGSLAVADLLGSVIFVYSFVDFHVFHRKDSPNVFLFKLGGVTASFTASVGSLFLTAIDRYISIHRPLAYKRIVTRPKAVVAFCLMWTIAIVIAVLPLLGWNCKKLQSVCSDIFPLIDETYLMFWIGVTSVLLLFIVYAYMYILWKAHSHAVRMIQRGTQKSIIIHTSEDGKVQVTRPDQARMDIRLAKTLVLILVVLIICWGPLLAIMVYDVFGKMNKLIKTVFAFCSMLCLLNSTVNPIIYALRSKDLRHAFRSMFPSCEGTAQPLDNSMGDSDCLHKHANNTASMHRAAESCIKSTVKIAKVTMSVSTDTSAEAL
Sequence (P47936 whole entry, looked up): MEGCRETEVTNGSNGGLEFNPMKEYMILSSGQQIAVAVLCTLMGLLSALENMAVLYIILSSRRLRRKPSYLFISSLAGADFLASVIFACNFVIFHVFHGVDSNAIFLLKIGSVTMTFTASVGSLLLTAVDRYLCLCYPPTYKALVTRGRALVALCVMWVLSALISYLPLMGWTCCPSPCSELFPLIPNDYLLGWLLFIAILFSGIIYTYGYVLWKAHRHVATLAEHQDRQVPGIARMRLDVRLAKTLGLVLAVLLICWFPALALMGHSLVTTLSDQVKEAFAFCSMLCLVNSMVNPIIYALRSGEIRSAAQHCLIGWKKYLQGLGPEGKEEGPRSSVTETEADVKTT
In this section we review reported Ratio Ki values for a set of compounds.
Enter a number only.

O=C(NN1CCCCC1)c1nn(-c2ccc(Cl)cc2Cl)c2c1CCCc1ccccc1-2; 0.11

Can you look up the measured Ratio Ki of Cc1ccc(NC(=O)c2nn(-c3ccc(Cl)cc3Cl)c3c2CCCc2cc(Cl)ccc2-3)cc1 for me? 11.3

Can you look up the measured Ratio Ki of Cc1ccc2c(c1)CCCc1c(C(=O)NN3CCCC3)nn(-c3ccc(Cl)cc3Cl)c1-2 for me? 3510

Can you look up the measured Ratio Ki of O=C(NC1CCCCC1)c1nn(-c2ccc(Cl)cc2Cl)c2c1CCCc1cc(Cl)ccc1-2 for me? 2.16

Can you look up the measured Ratio Ki of O=C(NN1CCCCC1)c1nn(-c2ccc(Cl)cc2Cl)c2c1CCCc1cc(Br)ccc1-2 for me? 4620

* * *

target: Cannabinoid receptor 2 (Mus musculus, UniProt P47936); assay: Displacement of [3H]CP-55940 from CB2 receptor in CD1 mouse spleen; format: tissue-based
Reported Endpoint: Ki

Worked examples follow.
O=C(NN1CCCCC1)c1nn(-c2ccc(Cl)cc2Cl)c2c1CCCc1ccc(Cl)cc1-2; 26.8 nM (antagonist)
O=C(NN1CCCCCC1)c1nn(-c2ccc(Cl)cc2Cl)c2c1CCCc1cc(Cl)ccc1-2; 2 nM (antagonist)

# query: Ki | item O=C(NN1CCCCC1)c1nn(-c2ccc(Cl)cc2Cl)c2c1CCCc1cc(Br)ccc1-2 | system: Cannabinoid receptor 2 (Mus musculus, UniProt P47936) 37 nM (antagonist)

# query: Ki | item O=C(NC1CCCCC1)c1nn(-c2ccc(Cl)cc2Cl)c2c1CCCc1cc(Cl)ccc1-2 | system: Cannabinoid receptor 2 (Mus musculus, UniProt P47936) 0.65 nM (antagonist)

# query: Ki | item O=C(NN1CCCCC1)c1nn(-c2ccc(Cl)cc2Cl)c2c1CCc1cc(Cl)ccc1-2 | system: Cannabinoid receptor 2 (Mus musculus, UniProt P47936) 227 nM (antagonist)

* * *

molecular target: Cannabinoid receptor (Mus musculus) (UniProt P47746+P47936); assay: Selectivity for CB1 receptor over CB2 receptor in CD1 mouse; type: protein assay
In this section we review reported Ratio Ki values for a set of compounds.

# query: Ratio Ki | item O=C(NN1CCCC1)c1nn(-c2ccc(Cl)cc2Cl)c2c1CCCc1cc(Cl)ccc1-2 | system: Cannabinoid receptor (Mus musculus) (UniProt P47746+P47936) 11200

# query: Ratio Ki | item O=C(NN1CCCCC1)c1nn(-c2ccc(Cl)cc2Cl)c2c1CCCc1ccc(Cl)cc1-2 | system: Cannabinoid receptor (Mus musculus) (UniProt P47746+P47936) 0.86

# query: Ratio Ki | item O=C(NN1CCCCC1)c1nn(-c2ccc(Cl)cc2Cl)c2c1Cc1cc(Cl)ccc1-2 | system: Cannabinoid receptor (Mus musculus) (UniProt P47746+P47936) 0.000166

# query: Ratio Ki | item O=C(NN1CCCCC1)c1nn(-c2ccc(Cl)cc2Cl)c2c1CCc1cc(Cl)ccc1-2 | system: Cannabinoid receptor (Mus musculus) (UniProt P47746+P47936) 15.3

# query: Ratio Ki | item O=C(NN1CCCCCC1)c1nn(-c2ccc(Cl)cc2Cl)c2c1CCCc1cc(Cl)ccc1-2 | system: Cannabinoid receptor (Mus musculus) (UniProt P47746+P47936) 2000

# query: Ratio Ki | item O=C(Nc1ccc(Cl)cc1)c1nn(-c2ccc(Cl)cc2Cl)c2c1CCCc1cc(Cl)ccc1-2 | system: Cannabinoid receptor (Mus musculus) (UniProt P47746+P47936) 31.6

# query: Ratio Ki | item COc1ccc(NC(=O)c2nn(-c3ccc(Cl)cc3Cl)c3c2CCCc2cc(Cl)ccc2-3)cc1 | system: Cannabinoid receptor (Mus musculus) (UniProt P47746+P47936) 3300
